Tested on: Pseudomonas fluorescens HPPD polypeptide (wild-type and mutants)
PROTOCOL: Coupled HPPD activity assay: turnover and residual turnover in crude HPPD polypeptide extracts with and without Cmpd. 1
Assay type: biochemical
COND: 100 μM Cmpd. 1, normalised to turnover without inhibitor
PROPERTY: Residual turnover [%] (%)
Numeric only. Scale: %

Consider the worked cases shown below.
[
  {
    "MOLECULE": "SEQ ID NO:7 (protein, mutant HPPD polypeptide) MADLYENPMGLMGFEFIEFASPTPGTLEPIFEIMGFTKVATHRSKNVHLYRQGEINLILNNEPNSIASYFAAEHGPSVCGMAFRVKDSQKAYNRALELGAQPIHIDTGPMELNLPAIKGIGGAPLYLIDRFGEGSSIYDIDFVYLEGVERNPVGAGLKVIDHLTHNVYRGRMVYWANFYEKLFNFREARYFDIKGEYTGLTSKAMSAPDGMIRIPLNEESSKGAGQIEEFLMQFNGEGIQHVAFLTDDLVKTWDALKKIGMRFLTAPGDEYYEMLEGRLPDHGEPVDQLQARGILLDGSSVEGDKRLLLQIFSEKLMGPVFFEFIQRKGDDGFGPDSFKVLFESIERDQVRRGVLTAD",
    "Residual turnover [%] / %": 59
  },
  {
    "MOLECULE": "SEQ ID NO:43 (protein, mutant HPPD polypeptide) MADLYENPMGLMGFEFIEFASPTPGTLEPIFEIMGFTKVATHRSKNVHLYRQGEINLILNNEPNSIASYFAAEHGPSVCGMAFRVKDSQKAYNRALELGAQPIHIDTGPMELNLPAIKGIGGAPLYLIDRFGEGSSIYDIDFVYLEGVERNPVGAGLKVIDHLTHNVYRGRMVYWANFYEKLFNFREARYFDIKGEYTGLTSKAMSAPDGMIKIPLNEESSKGAGQIEEFLMQFNGEGIQHVAFLTDDLVKTWDALKKIGMRFMTAPGDEYYEMLEGRLPDHGEPVDQLQARGILLDGSSVEGDKRLLLQIFSEKLMGPVFFEFIQRKGDDGFGPHSFKVLFESMERDQVRRGVLTAD",
    "Residual turnover [%] / %": 54
  },
  {
    "MOLECULE": "SEQ ID NO:40 (protein, mutant HPPD polypeptide) MADLYENPMGLMGFEFIEFASPTPGTLEPIFEIMGFTKVATHRSKNVHLYRQGEINLILNNEPNSIASYFAAEHGPSVCGMAFRVKDSQKAYNRALELGAQPIHIDTGPMELNLPAIKGIGGAPLYLIDRFGEGSSIYDIDFVYLEGVERNPVGAGLKVIDHLTHNVYRGRMVYWANFYEKLFNFREARYFDIKGEYTGLTSKAMSAPDGMIKIPLNEESSKGAGQIEEFLMQFNGEGIQHVAFLTDDLVKTWDALKKIGMRFMTAPGDEYYEMLEGRLPDHGEPVDQLQARGILLDGSSVEGDKRLLLQIFSEQLMGPVFFEFIQRKGDDGFGPDSFKVLFESMERDQVRRGVLTAD",
    "Residual turnover [%] / %": 36
  }
]

Give the reported Residual turnover [%] for this molecule. SEQ ID NO:14 (protein, mutant HPPD polypeptide) MADLYENPMGLMGFEFIEFASPTPGTLEPIFEIMGFTKVATHRSKNVHLYRQGEINLILNNEPNSIASYFAAEHGPSVCGMAFRVKDSQKAYNRALELGAQPIHIDTGPMELNLPAIKGIGGAPLYLIDRFGEGSSIYDIDFVYLEGVERNPVGAGLKVIDHLTHNVYRGRMVYWANFYEKLFNFREARYFDIKGEYTGLTSKAMSAPDGMIRIPLNEESSKGAGQIEEFLMQFNGEGIQHVAFLTDDLVKTWDALKKIGMRFMTAPGDEYYEMLEGRLPDHGEPVDQLQARGILLDGSSVEGDKRLLLQIFSEKLMGPVFFEFIQRKGDDGFGPDSFKVLFESMERDQVRRGVLTAD
40
